Target: hα4β2 nAChR (Homo sapiens, UniProt P17787+P43681)
Sequence (P43681 27-627, one chain of several): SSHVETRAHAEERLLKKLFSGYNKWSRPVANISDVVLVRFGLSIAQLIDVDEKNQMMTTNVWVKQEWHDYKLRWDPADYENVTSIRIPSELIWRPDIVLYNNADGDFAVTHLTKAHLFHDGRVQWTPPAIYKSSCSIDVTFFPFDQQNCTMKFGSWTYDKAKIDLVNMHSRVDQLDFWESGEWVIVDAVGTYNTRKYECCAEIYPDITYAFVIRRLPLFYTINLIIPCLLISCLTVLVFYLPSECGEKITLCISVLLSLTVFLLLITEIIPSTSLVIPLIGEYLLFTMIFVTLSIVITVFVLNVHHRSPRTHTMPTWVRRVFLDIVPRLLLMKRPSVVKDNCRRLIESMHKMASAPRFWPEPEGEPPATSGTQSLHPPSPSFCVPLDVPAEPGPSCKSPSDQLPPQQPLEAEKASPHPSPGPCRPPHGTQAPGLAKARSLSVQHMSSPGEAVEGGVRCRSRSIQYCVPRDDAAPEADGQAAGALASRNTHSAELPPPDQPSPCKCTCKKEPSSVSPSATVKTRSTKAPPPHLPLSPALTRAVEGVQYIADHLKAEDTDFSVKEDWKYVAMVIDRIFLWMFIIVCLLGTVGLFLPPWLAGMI
Conditions: read-out: Ki α4β2; human cloned receptors, 3H-epibatidine
parameter: Ki

Problem: # value lookup — system hα4β2 nAChR (Homo sapiens, UniProt P17787+P43681), readout Ki, item Fc1ncccc1OC[C@@H]1C=CCN1 [Nifene]
Result: 0.83 nM

###

Biological target: hα2β2 nAChR (Homo sapiens, UniProt P17787+Q15822)
Sequence (Q15822 27-529, one chain of several): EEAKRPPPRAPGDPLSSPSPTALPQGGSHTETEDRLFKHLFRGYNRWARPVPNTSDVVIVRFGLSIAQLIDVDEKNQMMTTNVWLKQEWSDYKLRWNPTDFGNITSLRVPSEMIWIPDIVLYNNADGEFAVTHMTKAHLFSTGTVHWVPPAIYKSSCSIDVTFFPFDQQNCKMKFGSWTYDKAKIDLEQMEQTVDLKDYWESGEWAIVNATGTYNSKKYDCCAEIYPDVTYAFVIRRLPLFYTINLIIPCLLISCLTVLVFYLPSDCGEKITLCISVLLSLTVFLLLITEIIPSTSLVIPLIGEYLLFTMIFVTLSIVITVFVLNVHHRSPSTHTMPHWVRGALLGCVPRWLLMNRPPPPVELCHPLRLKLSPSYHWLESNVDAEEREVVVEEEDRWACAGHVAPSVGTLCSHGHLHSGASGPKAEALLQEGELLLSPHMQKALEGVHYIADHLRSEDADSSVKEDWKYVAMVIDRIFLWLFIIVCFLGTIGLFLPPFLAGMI
Assay: biochemical
Type: binding
parameter: Ki (nM)
The reply should be a number in nM, with the unit left off.

Problem: # value lookup — system hα2β2 nAChR (Homo sapiens, UniProt P17787+Q15822), readout Ki, item CN1CCC[C@H]1c1cccnc1 [Nicotine, reference compound]
Result: 3.64

###

Target: hα2β2 nAChR (Homo sapiens, UniProt P17787+Q15822)
Assay: biochemical
Type: binding
Settings: read-out: Ki α2β2; human cloned receptors, 3H-epibatidine
parameter: pKi
Units for pKi: none; it is -log10 of a concentration expressed in mol/L.

Problem: Param item = Fc1ncccc1OC[C@@H]1C=CCN1 ; retrieve measured pKi.
Result: 9.47

###

Target: hα3β2 nAChR (Homo sapiens, UniProt P17787+P32297)
Sequence (P17787 26-502): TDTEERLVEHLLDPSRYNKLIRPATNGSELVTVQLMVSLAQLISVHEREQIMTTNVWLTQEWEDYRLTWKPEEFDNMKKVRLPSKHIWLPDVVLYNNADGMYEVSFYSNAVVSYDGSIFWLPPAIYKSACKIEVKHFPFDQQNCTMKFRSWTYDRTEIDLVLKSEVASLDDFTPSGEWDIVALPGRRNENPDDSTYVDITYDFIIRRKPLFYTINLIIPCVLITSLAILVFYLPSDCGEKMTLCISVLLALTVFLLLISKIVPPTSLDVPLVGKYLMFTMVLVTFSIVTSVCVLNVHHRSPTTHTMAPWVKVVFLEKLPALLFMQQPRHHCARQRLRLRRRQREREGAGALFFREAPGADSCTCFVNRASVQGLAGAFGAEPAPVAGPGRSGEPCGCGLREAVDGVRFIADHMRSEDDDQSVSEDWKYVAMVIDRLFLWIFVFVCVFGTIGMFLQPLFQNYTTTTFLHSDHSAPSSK
Sequence (P32297 32-505): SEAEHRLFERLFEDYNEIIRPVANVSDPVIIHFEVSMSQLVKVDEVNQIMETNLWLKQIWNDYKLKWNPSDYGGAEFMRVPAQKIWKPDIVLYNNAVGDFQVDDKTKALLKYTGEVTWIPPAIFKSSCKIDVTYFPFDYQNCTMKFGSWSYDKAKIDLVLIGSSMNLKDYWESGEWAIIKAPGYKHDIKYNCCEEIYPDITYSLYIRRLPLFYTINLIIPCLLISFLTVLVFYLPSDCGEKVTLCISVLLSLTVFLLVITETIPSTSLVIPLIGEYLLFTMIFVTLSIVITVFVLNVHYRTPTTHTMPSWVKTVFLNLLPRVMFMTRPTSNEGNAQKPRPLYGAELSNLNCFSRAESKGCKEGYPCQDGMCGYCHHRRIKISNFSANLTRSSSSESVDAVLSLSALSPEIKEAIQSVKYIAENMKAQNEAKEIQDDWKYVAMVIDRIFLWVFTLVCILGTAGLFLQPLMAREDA
Details: read-out: Ki α3β2; human cloned receptors, 3H-epibatidine
parameter: pKi
Units for pKi: none; it is -log10 of a concentration expressed in mol/L.

Problem: Param item = Fc1ncccc1OC[C@@H]1C=CCN1 [Nifene] ; retrieve measured pKi.
Result: 9.10

###

Target: nAChR α2β4 (Homo sapiens, UniProt P30926+Q15822)
Sequence (Q15822 27-529): as the sequence (Q15822 27-529, one chain of several) above
Sequence (P30926 22-498): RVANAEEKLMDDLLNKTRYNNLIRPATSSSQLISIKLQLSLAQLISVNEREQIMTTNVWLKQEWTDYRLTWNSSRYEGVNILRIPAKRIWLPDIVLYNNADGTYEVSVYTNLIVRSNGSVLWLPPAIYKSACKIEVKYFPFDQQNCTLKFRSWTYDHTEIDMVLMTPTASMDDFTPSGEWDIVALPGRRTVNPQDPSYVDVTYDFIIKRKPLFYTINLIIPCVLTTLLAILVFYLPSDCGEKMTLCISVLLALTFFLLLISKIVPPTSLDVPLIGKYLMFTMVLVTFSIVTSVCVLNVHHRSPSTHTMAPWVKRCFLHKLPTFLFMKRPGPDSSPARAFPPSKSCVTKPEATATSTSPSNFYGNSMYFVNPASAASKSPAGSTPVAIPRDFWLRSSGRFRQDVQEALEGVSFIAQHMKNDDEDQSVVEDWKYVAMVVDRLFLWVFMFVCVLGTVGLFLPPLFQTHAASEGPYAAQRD
Assay: biochemical
Assay type: binding
parameter: pKi
Units for pKi: none; it is -log10 of a concentration expressed in mol/L.

Problem: Param item = CN1CCC[C@H]1c1cccnc1 [Nicotine, reference compound] ; retrieve measured pKi.
Result: 7.08

###

Target: nAChR α3β4 (Homo sapiens, UniProt P30926+P32297)
Sequence (P30926 22-498, one chain of several): as the sequence (P30926 22-498) above
Settings: read-out: Ki α3β4; human cloned receptors, 3H-epibatidine
parameter: pKi
Units for pKi: none; it is -log10 of a concentration expressed in mol/L.

Problem: Param item = Fc1ncccc1OC[C@@H]1C=CCN1 [Nifene] ; retrieve measured pKi.
Result: 6.72
